# studyTarget: recombinant human GST-Syk (Homo sapiens (Human), UniProt P43405)
# methodSummary: Homogeneous Time-Resolved Fluorescence (HTRF) assay for the recombinant human Syk enzyme
# experimentalContext: recombinant human GST-Syk 5 pM, ATP 25 μM, read-out: rhSyk IC50
Property: log10 of IC50; scope: individual compounds
The figures below represent log10 of IC50, where IC50 is stated in nM.

Record excerpt, results attached:
- compound: "Cc1cc(Nc2cc(C(F)(F)F)ccn2)nc(-c2ccc(NC3CCN(C(=O)c4cccc(Cl)c4)CC3)nc2)c1"
  studyTarget: "recombinant human GST-Syk (Homo sapiens (Human), UniProt P43405)"
  log10 of IC50: 2.39
- compound: "Cc1cc(Nc2cc(C(F)(F)F)ccn2)nc(-c2ccc(C3(O)CCCc4cc(C(=O)O)ccc43)nc2)c1 (stereo not drawn) [Example 1-21]"
  studyTarget: "recombinant human GST-Syk (Homo sapiens (Human), UniProt P43405)"
  log10 of IC50: 0.30
- compound: "Cc1cc(Nc2cc(C(F)(F)F)ccn2)nc(-c2ccc(NC3CCN(C(=O)Cc4ccc(Cl)cc4)CC3)nc2)c1"
  studyTarget: "recombinant human GST-Syk (Homo sapiens (Human), UniProt P43405)"
  log10 of IC50: 1.32
- compound: "Cc1cc(Nc2cc(C(F)F)ccn2)nc(-c2ccc(C(C)(O)[C@H]3CC[C@H](C(=O)OCC4CCCCC4)CC3)nc2)c1 (single isomer, unassigned)"
  studyTarget: "recombinant human GST-Syk (Homo sapiens (Human), UniProt P43405)"
  log10 of IC50: 2.32
- compound: "Cc1cc(Nc2cc(C(F)(F)F)ccn2)nc(-c2ccc(NC3CCN(C(=O)c4cccc5c4oc4ccccc45)CC3)nc2)c1"
  studyTarget: "recombinant human GST-Syk (Homo sapiens (Human), UniProt P43405)"
  log10 of IC50: 2.25
- compound: "Cc1cc(Nc2cc(C(F)(F)F)ccn2)nc(-c2ccc(NC3CCN(C(=O)c4cccc(C#N)c4)CC3)nc2)c1"
  studyTarget: "recombinant human GST-Syk (Homo sapiens (Human), UniProt P43405)"
  log10 of IC50: 0.85

Now examine the next entry.
What log10 of IC50 value was documented for this compound, CC(=O)OCOC(=O)[C@H]1CC[C@H](C(C)(O)c2ccc(-c3cc(C)cc(Nc4cc(C(F)F)ccn4)n3)cn2)CC1 (single isomer, unassigned) ? 1.04

###

# studyTarget: recombinant human GST-Syk (Homo sapiens (Human), UniProt P43405)
# methodSummary: Homogeneous Time-Resolved Fluorescence (HTRF) assay for the recombinant human Syk enzyme
# experimentalContext: recombinant human GST-Syk 5 pM, ATP 25 μM, read-out: rhSyk IC50
# Protocol: Syk inhibition may be determined using the following assay protocol: Homogeneous Time-Resolved Fluorescence (HTRF) Assay for the Recombinant Human Syk Enzyme: A recombinant GST-hSyk fusion protein was used to measure potency of compounds to inhibit human Syk activity. […] To initiate the reaction the biotinylated substrate peptide (250 nM final concentration) that contains the phosphorylation site for Syk was added with magnesium (5 mM final concentration) and ATP (25 μM final concentration). […]
pIC50: −log10 of the molar value.
Catalogue of pIC50 readings, one per entry.

The cases that follow already have their pIC50 on record.
- compound: "Cc1cc(Nc2cc(C(F)F)ccn2)nc(-c2ccc(C(C)(O)C3CCC(C(=O)O)C(C)C3)nc2)c1 (stereo not drawn) [Example 1-35]"
  endpoint: "pIC50"
  result: "> 9.30"
- compound: "Cc1cc(Nc2cc(C(F)(F)F)ccn2)nc(-c2ccc(C(C)[C@H]3CC[C@H](C(=O)O)CC3)nc2)c1 (single isomer, unassigned) [Example 14]"
  endpoint: "pIC50"
  result: "> 9.30"

Okay, now this compound:
// returns reported pIC50 for input Cc1cc(Nc2cc(C(F)(F)F)ccn2)nc(-c2ccc(C(O)(C3CCC(C(=O)O)CC3)C3CC3)nc2)c1 (stereo not drawn) [Example 1-31] > 9.30

###

# studyTarget: recombinant human GST-Syk (Homo sapiens (Human), UniProt P43405)
# methodSummary: Homogeneous Time-Resolved Fluorescence (HTRF) assay for the recombinant human Syk enzyme
# experimentalContext: recombinant human GST-Syk 5 pM, ATP 25 μM, read-out: rhSyk IC50
Measured IC50 accompanies every entry in the list below.

- compound: "CCC(O)(c1ccc(-c2cc(C)cc(Nc3cc(C(F)(F)F)ccn3)n2)cn1)C1CCC(C(=O)O)CC1 (stereo not drawn) [Example 1-30]"
  IC50: "< 0.5 nM"
- compound: "Cc1cc(Nc2cc(C(F)(F)F)ccn2)nc(-c2ccc(NC3CCC(C(=O)O)C(C)C3)nc2)c1 (single isomer, unassigned) [Example 3-2]"
  IC50: "< 0.5 nM"

# input for lookup
If you can, please state the reported IC50 value of Cc1cc(Nc2cc(C(F)F)ccn2)nc(-c2ccc(C(C)(O)[C@H]3CC[C@@H](C(=O)O)CC3)nc2)c1 (single isomer, unassigned) [Example 12-2] . < 0.5 nM
